- Species on record: Rattus norvegicus
- assay_overview: Open TG-GATES - Regimen: Daily Repeat
- Assay type: toxicity, organism-based, Sprague-Dawley
- Parameters: regimen Daily Repeat, gender Male, age 6 weeks
- setup_conditions: in vivo, po, 10 mg/kg, […], tissue Plasma, route gavage, dose level Low, time 7 day
Measured CRE values are reported for all entries that follow.
Give a bare numeral; the unit mg/dL is implied.

compound | numeric_result
CN(C)CCN(Cc1cccs1)c1ccccn1 | 0.2

Query: Query (compound): CN(C)CCCN1c2ccccc2CCc2ccccc21 ; field requested: CRE
Reply: 0.2

Query: And then CC(C)OC(=O)C(C)(C)Oc1ccc(C(=O)c2ccc(Cl)cc2)cc1 [FENOFIBRATE] , what is it?
Reply: 0.2

Query: And then CC1=C(/C=C/C(C)=C/C=C/C(C)=C/CO)C(C)(C)CCC1 , what is it?
Reply: 0.2

* * *

Measured AST values are reported for all entries that follow.
- Species: Rattus norvegicus
- assay_overview: Open TG-GATES - Regimen: Single
- Type: toxicity, organism-based, Sprague-Dawley
- Parameters: regimen Single, gender Male, age 6 weeks
- setup_conditions: in vivo, po, 1000 mg/kg, 6 h, tissue Plasma, route gavage, dose level High
Give a bare numeral; the unit IU/L is implied.

Consider the worked cases shown below.
compound | AST (IU/L)
NC(N)=Nc1nc(CSCCC(N)=NS(N)(=O)=O)cs1 | 65.8
COC1=CC(=O)C[C@@H](C)[C@]12Oc1c(Cl)c(OC)cc(OC)c1C2=O | 66.8
CCOC(=O)CCC(=O)O[C@H]1[C@H](O[C@@H]2[C@@H](C)[C@H](O[C@H]3C[C@@](C)(OC)[C@@H](O)[C@H](C)O3)[C@@H](C)C(=O)O[C@H](CC)[C@@](C)(O)[C@H](O)[C@@H](C)C(=O)[C@H](C)C[C@@]2(C)O)O[C@H](C)C[C@@H]1N(C)C [ERYTHROMYCIN ETHYLSUCCINATE] | 79.8
COc1ccc2[nH]c([S+]([O-])Cc3ncc(C)c(OC)c3C)nc2c1 (stereo not given) | 65.6

# input for lookup
Query: Query (compound): CC(C)OC(=O)C(C)(C)Oc1ccc(C(=O)c2ccc(Cl)cc2)cc1 [FENOFIBRATE] ; field requested: AST
Reply: 75.4

* * *

- Organism: Rattus norvegicus
- assay_overview: Open TG-GATES - Regimen: Daily Repeat
- Format: toxicity, organism-based, Sprague-Dawley
- Set-up: regimen Daily Repeat, gender Male, age 6 weeks
- setup_conditions: in vivo, po, 300 mg/kg, […], tissue Blood, route gavage, dose level Middle, time 28 day
Measured Lym values are reported for all entries that follow.
Show the value, then the unit it is measured in.

Consider the worked cases shown below.
compound | Lym
COc1ccc2[nH]c([S+]([O-])Cc3ncc(C)c(OC)c3C)nc2c1 (stereo not given) | 80.4%
NC(N)=Nc1nc(CSCCC(N)=NS(N)(=O)=O)cs1 | 82.2%

Query: Query (compound): COC1=CC(=O)C[C@@H](C)[C@]12Oc1c(Cl)c(OC)cc(OC)c1C2=O ; field requested: Lym
Reply: 81%

Query: And then CCOc1ccc(NC(=O)CC(C)O)cc1 (stereo not given) , what is it?
Reply: 74.6%

Query: And then CCOC(=O)CCC(=O)O[C@H]1[C@H](O[C@@H]2[C@@H](C)[C@H](O[C@H]3C[C@@](C)(OC)[C@@H](O)[C@H](C)O3)[C@@H](C)C(=O)O[C@H](CC)[C@@](C)(O)[C@H](O)[C@@H](C)C(=O)[C@H](C)C[C@@]2(C)O)O[C@H](C)C[C@@H]1N(C)C [ERYTHROMYCIN ETHYLSUCCINATE] , what is it?
Reply: 85.4%
